target: IFI16FL (Homo sapiens, UniProt Q16666-2 1-729); assay: fluorescence anisotropy; 160 mM KCl; 60 mM KCl for IFI16HinAB; FAM probe 3-6 nM (FA) or 20 nM (EMSA); binding buffer pH and temperature not in the material; conditions: protein: recombinant; tags: C-terminal His6
Sequence (Q16666 other isoform, or with tags, fused parts or gaps): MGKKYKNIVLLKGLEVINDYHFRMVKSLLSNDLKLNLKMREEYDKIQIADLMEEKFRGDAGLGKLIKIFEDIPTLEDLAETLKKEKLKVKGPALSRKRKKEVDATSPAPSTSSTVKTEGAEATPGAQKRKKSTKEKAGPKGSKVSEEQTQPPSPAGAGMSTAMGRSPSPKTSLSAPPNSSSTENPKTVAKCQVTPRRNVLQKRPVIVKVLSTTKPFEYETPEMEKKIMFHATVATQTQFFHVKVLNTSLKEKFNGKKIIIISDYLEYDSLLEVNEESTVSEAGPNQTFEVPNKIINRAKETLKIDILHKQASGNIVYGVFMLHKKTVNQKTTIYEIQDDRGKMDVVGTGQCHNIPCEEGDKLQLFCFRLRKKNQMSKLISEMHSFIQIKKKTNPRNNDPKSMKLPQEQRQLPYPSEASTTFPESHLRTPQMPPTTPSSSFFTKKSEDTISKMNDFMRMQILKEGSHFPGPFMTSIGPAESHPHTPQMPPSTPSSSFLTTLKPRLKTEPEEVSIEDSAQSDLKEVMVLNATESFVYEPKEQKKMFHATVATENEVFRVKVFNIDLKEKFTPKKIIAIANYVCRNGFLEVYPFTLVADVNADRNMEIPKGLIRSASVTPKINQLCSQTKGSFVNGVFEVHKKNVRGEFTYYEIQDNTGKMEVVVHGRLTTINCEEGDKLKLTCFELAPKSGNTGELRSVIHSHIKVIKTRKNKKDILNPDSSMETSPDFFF
List of Kd values.
recorded metric: Kd (nM)

binder="60-bp dsRNA (dsRNA) RNA 1: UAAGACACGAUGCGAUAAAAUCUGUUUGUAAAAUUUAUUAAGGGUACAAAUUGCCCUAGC RNA 2: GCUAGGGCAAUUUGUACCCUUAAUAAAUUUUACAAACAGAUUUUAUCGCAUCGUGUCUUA" recorded_metric=Kd scale_unit=nM recorded_number=85
binder="60-base ssDNA_T (ssDNA) DNA: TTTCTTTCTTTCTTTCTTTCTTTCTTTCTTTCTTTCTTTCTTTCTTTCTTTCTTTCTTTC" recorded_metric=Kd scale_unit=nM recorded_number=22
binder="60-base ssDNA_A (ssDNA) DNA: AAAGAAAGAAAGAAAGAAAGAAAGAAAGAAAGAAAGAAAGAAAGAAAGAAAGAAAGAAAG" recorded_metric=Kd scale_unit=nM recorded_number=150
binder="60-base ssRNA_U (ssRNA) RNA: UUUCUUUCUUUCUUUCUUUCUUUCUUUCUUUCUUUCUUUCUUUCUUUCUUUCUUUCUUUC" recorded_metric=Kd scale_unit=nM recorded_number=78
